Where do these numbers come from? They come from ChEMBL document CHEMBL1145240.

measurement target: Muscarinic acetylcholine receptor
protocol summary: Inhibition of [3H]QNB binding to muscarinic receptor of rat cortex
Each record is given true if its reported Ki is strictly below 7 µM. Records at or above 7 µM are given false.

{"compound": "COC(=O)C1C2CC3CCC1N3C/C2=C\\C#Cc1cccc(F)c1 (stereo not given)", "class": "false"}
{"compound": "COC(=O)C1C2CC3CCC1N3C/C2=C\\c1ccc(-c2ccccc2OC)cc1 (stereo not given)", "class": "false"}
{"compound": "COC(=O)C1C2CC[C@@H]3C[C@@H]1/C(=C/c1ccc(-c4cc(F)cc(F)c4)cc1)CN23 (stereo not given in full)", "class": "true"}
{"compound": "COC(=O)C1C2CC3CCC1N3C/C2=C\\c1ccc(-c2cccc(F)c2)cc1 (stereo not given)", "class": "false"}
{"compound": "COC(=O)C1C2CC3CCC1N3C/C2=C\\C#Cc1cccs1 (stereo not given)", "class": "false"}
{"compound": "COC(=O)C1C2CC3CCC1N3C/C2=C\\C#Cc1ccc(F)cc1 (stereo not given)", "class": "false"}
{"compound": "COC(=O)C1C2CC3CCC1N3C/C2=C\\c1ccc(-c2ccsc2)s1 (stereo not given)", "class": "true"}
{"compound": "COC(=O)C1C2CC3CCC1N3C/C2=C\\C#Cc1c(F)cccc1F (stereo not given)", "class": "false"}
{"compound": "COC(=O)C1C2CC3CCC1N3C/C2=C\\c1ccc(-c2ccc(SC)cc2)s1 (stereo not given)", "class": "false"}
